The reported measurements were obtained from paper PMC9482650.

Molecular target: DLG1_3, Q12959
Sequence (Q12959 457-571): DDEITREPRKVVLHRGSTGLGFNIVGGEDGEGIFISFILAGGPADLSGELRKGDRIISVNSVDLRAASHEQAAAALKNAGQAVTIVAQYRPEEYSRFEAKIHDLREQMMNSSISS
Assay: holdup assay
Design: key: below the threshold = too weak to quantify, mostly under pKd 3.1 to 4
Details: plain residues with an end cap or a label only (N-terminal biotin on a linker: ahx)

- binder: "TQKFRASTAL [FRMPD1, Q5SYB0]"
  pKd: 3.49
- binder: "APSRKLNTEI [TIAM1, Q13009]"
  pKd: "below the threshold"
- binder: "TEAKLTETNA [MYO18A, Q92614]"
  pKd: "below the threshold"
- binder: "QNTDDVQTSF [ACE2, Q9BYF1]"
  pKd: "below the threshold"
